- experiment description: Caspase-3/7 induction in HepG2 cells by small molecules, qHTS assay (AID 1346978); further: nearly all actives have a fitted effect of over 15% in size
- cond: HepG2 caspase-3/7 activation, Caspase-Glo luminescence, 17 h; series mostly up to 92.4 µM
Records with an inconclusive call do not appear. The source made the active and inactive calls. The call rests on the fitted dose curve; in most records, active means well fitted activation curve with a large enough effect in the repeat runs; inconclusive means weak or mixed curves; inactive means flat fitted curve, though single readings scatter.
endpoint label: outcome

[[record]]
compound = "O=C(OCC(COC(=O)c1ccccc1)(COC(=O)c1ccccc1)COC(=O)c1ccccc1)c1ccccc1"
endpoint_label = "outcome"
observed_measurement = "inactive"

[[record]]
compound = "O=C1c2ccccc2Cc2ccccc21"
endpoint_label = "outcome"
observed_measurement = "inactive"

[[record]]
compound = "CCC1OCC(COc2ccc(Oc3ccccc3)cc2)O1 (configuration not stated)"
endpoint_label = "outcome"
observed_measurement = "inactive"

[[record]]
compound = "CC1=NC(C)OC1C (configuration not stated)"
endpoint_label = "outcome"
observed_measurement = "inactive"

[[record]]
compound = "Clc1ccc2cc3ccccc3cc2c1"
endpoint_label = "outcome"
observed_measurement = "inactive"

[[record]]
compound = "Cc1cc(O)c2ccccc2c1O"
endpoint_label = "outcome"
observed_measurement = "inactive"

[[record]]
compound = "CCC(N)(CO)CO"
endpoint_label = "outcome"
observed_measurement = "inactive"


---

- experiment description: qHTS assay to identify small molecule agonists of the AP-1 signaling pathway - cell viability counter screen (AID 1159525); further: nearly all actives have a fitted effect of over 55% in size
- cond: ME-180 (cervical carcinoma) AP-1-bla cells viability, ATP luminescence, 5 h; series mostly up to 76.8 µM
Records with an inconclusive call do not appear. Activity calls are given as the source filed them. Calls follow the shape of the full dose curve.
Possible outcomes: true (active), false (inactive)

[[record]]
molecule = "CCCCCCCCCOC(=O)c1ccc(O)cc1"
qualitative_label = "true"

[[record]]
molecule = "CC(=O)SC[C@@H](Cc1ccccc1)C(=O)NCC(=O)OCc1ccccc1"
qualitative_label = "false"

[[record]]
molecule = "COC(=O)c1cc(Cl)ccc1OC"
qualitative_label = "false"

[[record]]
molecule = "CCCCN1CCCC[C@H]1C(=O)Nc1c(C)cccc1C"
qualitative_label = "false"

[[record]]
molecule = "Cc1c(C)c2c(c(C)c1O)CCC(C)(COc1ccc(CC3SC(=O)NC3=O)cc1)O2 (configuration not stated)"
qualitative_label = "false"

[[record]]
molecule = "CSc1ccc(C(=O)c2[nH]c(=O)[nH]c2C)cc1"
qualitative_label = "false"

[[record]]
molecule = "N=C1C=CC(=C(c2ccc(N)cc2)c2ccc(N)cc2)C=C1"
qualitative_label = "false"

[[record]]
molecule = "COc1c(C)c2c(c(O)c1C/C=C(\\C)CCC(=O)O)C(=O)OC2"
qualitative_label = "false"

[[record]]
molecule = "CCC(CN)=C(c1ccccc1)c1ccccc1"
qualitative_label = "false"

[[record]]
molecule = "CC(=O)OCC(C)OC(C)=O (configuration not stated)"
qualitative_label = "false"

[[record]]
molecule = "C/C(=C(/OCCOc1ccc(Cl)cc1)c1ccc(Cl)cc1Cl)n1ccnc1"
qualitative_label = "false"

[[record]]
molecule = "CCCCCCCCn1sc(Cl)c(Cl)c1=O"
qualitative_label = "true"


---

- experiment description: A CellTox Green Cytotoxicity Assay to monitor cytotoxicity in HepG2 cells - 40 hour (AID 1224879); further: nearly all actives have a fitted effect of over 40% in size
- cond: CellTox Green fluorescence; series mostly up to 76.8 µM
Inconclusive results are not listed. The source made the active and inactive calls. Calls follow the shape of the dose curve; as a rule, active = well fitted activation curve with a large enough effect in the repeat runs; inconclusive = weak or mixed curves; inactive = flat fitted curve, though single readings scatter.
Possible outcomes: active, inactive

[[record]]
compound = "Nc1ccc2cc(S(=O)(=O)O)cc(O)c2c1N=Nc1ccccc1C(F)(F)F"
qualitative_label = "inactive"

[[record]]
compound = "CCCCCCCCCOC(=O)c1ccc(O)cc1"
qualitative_label = "active"

[[record]]
compound = "CC(=O)N1CCN(c2ccc(OC[C@H]3CO[C@](Cn4ccnc4)(c4ccc(Cl)cc4Cl)O3)cc2)CC1"
qualitative_label = "active"

[[record]]
compound = "COC(=O)C1=C(C)NC(C)=C(C(=O)OCCc2ccc(N3CCN(C(c4ccccc4)c4ccccc4)CC3)cc2)C1c1cccc([N+](=O)[O-])c1 (stereo not given)"
qualitative_label = "inactive"

[[record]]
compound = "NNc1nc(-c2ccc(N)cc2)cs1"
qualitative_label = "inactive"

[[record]]
compound = "Nc1ccc2c3c(cccc13)-c1ccccc1-2"
qualitative_label = "active"

[[record]]
compound = "N=C1N=C(N)c2cc3ccccc3cc21"
qualitative_label = "active"

[[record]]
compound = "C1CCCC1"
qualitative_label = "inactive"

[[record]]
compound = "OC1(c2ccc(Cl)c(C(F)(F)F)c2)CCN(CCCC(c2ccc(F)cc2)c2ccc(F)cc2)CC1"
qualitative_label = "active"

[[record]]
compound = "O=C(Nc1cccc([N+](=O)[O-])c1)c1cc2ccccc2cc1O"
qualitative_label = "inactive"

[[record]]
compound = "CCOc1ccc2nc3cc(N)ccc3c(N)c2c1"
qualitative_label = "active"

[[record]]
compound = "[Cl][Au]([Cl])[Cl]"
qualitative_label = "active"

[[record]]
compound = "CSc1cnc(C)cn1"
qualitative_label = "active"

[[record]]
compound = "CC[C@@]1(O)C(=O)OCc2c1cc1n(c2=O)Cc2cc3c(CN(C)C)c(O)ccc3nc2-1"
qualitative_label = "active"

[[record]]
compound = "O=C(Oc1cccc2cccnc12)c1ccccc1"
qualitative_label = "active"

[[record]]
compound = "COc1ccc(-c2ccc3cc(C(=O)O)ccc3c2)cc1C12CC3CC(CC(C3)C1)C2"
qualitative_label = "active"

[[record]]
compound = "C[C@@H]1C[C@H]2[C@@H]3CCC4=CC(=O)C=C[C@]4(C)[C@@]3(Cl)[C@@H](O)C[C@]2(C)[C@@]1(OC(=O)c1ccco1)C(=O)CCl"
qualitative_label = "inactive"

[[record]]
compound = "CCCCCCCCCCn1cc[n+](CCCCCCCCCC)c1C"
qualitative_label = "active"

[[record]]
compound = "CCCC(=O)OC[C@@H](OC(=O)CCC)[C@@H](OC(=O)CCC)[C@H](Cn1c2nc(=O)[nH]c(=O)c-2nc2cc(C)c(C)cc21)OC(=O)CCC"
qualitative_label = "active"

[[record]]
compound = "COc1cccc2c1C(=O)c1c(O)c3c(c(O)c1C2=O)C[C@@](O)(C(=O)CO)C[C@@H]3O[C@H]1C[C@H](N)[C@H](O[C@@H]2CCCCO2)[C@H](C)O1"
qualitative_label = "active"

[[record]]
compound = "COc1cc(-c2nc(NC(=O)c3cc4cc(C)cc(C)c4n3CC(=O)O)sc2CCC2CCCCC2)c(OC)cc1Cl"
qualitative_label = "active"

[[record]]
compound = "Cc1ccc(O)c2ncccc12"
qualitative_label = "active"

[[record]]
compound = "O=C1CCCCCN1SSN1CCCCCC1=O"
qualitative_label = "active"

[[record]]
compound = "COCCCC/C(=N\\OCCN)c1ccc(C(F)(F)F)cc1"
qualitative_label = "active"

[[record]]
compound = "CCC(C)Nc1ccc(NC(C)CC)cc1 (stereo not given)"
qualitative_label = "active"

[[record]]
compound = "Cc1oc(-c2ccccc2)nc1CCC(=O)c1ccc(CC2SC(=O)NC2=O)cc1 (stereo not given)"
qualitative_label = "inactive"

[[record]]
compound = "COc1cc(-c2ccc(N=C=O)c(OC)c2)ccc1N=C=O"
qualitative_label = "inactive"

[[record]]
compound = "[Cl][Bi]([Cl])([c]1ccccc1)([c]1ccccc1)[c]1ccccc1"
qualitative_label = "active"

[[record]]
compound = "c1cc(C(c2ccc(OCC3CO3)cc2)c2ccc(OCC3CO3)cc2)ccc1OCC1CO1 (stereo not given)"
qualitative_label = "inactive"

[[record]]
compound = "CC(C)CCCCCCCCCCCCCCC(=O)O"
qualitative_label = "inactive"

[[record]]
compound = "O=C(NOCC1CC1)c1ccc(F)c(F)c1Nc1ccc(I)cc1Cl"
qualitative_label = "active"

[[record]]
compound = "COc1cccc(N)c1"
qualitative_label = "inactive"

[[record]]
compound = "CC(=O)S[C@@H]1CC2=CC(=O)CC[C@]2(C)[C@H]2CC[C@@]3(C)[C@@H](CC[C@@]34CCC(=O)O4)[C@H]12"
qualitative_label = "active"

[[record]]
compound = "c1ccc(CSCc2ccccc2)cc1"
qualitative_label = "inactive"

[[record]]
compound = "OCCN1CCN(CC/C=C2/c3ccccc3Sc3ccc(C(F)(F)F)cc32)CC1"
qualitative_label = "active"

[[record]]
compound = "CC[C@H](c1ccc(O)cc1)[C@@H](CC)c1ccc(O)cc1"
qualitative_label = "active"

[[record]]
compound = "O=S1(=O)CC(Cl)(Cl)C(Cl)(Cl)C1"
qualitative_label = "active"

[[record]]
compound = "CC1=C(/C=C/C(C)=C/C=C/C(C)=C/C=O)C(C)(C)CCC1"
qualitative_label = "active"

[[record]]
compound = "O=C(Oc1ccccc1)c1ccccc1C(=O)Oc1ccccc1"
qualitative_label = "inactive"

[[record]]
compound = "OCCCCCCCCCCCCBr"
qualitative_label = "active"

[[record]]
compound = "CC(C)C(C)(C)C(C)(C)C(C)(C)S"
qualitative_label = "inactive"

[[record]]
compound = "CCCCC(CC)COP(=O)(O)OCC(CC)CCCC (stereo not given)"
qualitative_label = "active"

[[record]]
compound = "CCC1OCC(COc2ccc(Oc3ccccc3)cc2)O1 (stereo not given)"
qualitative_label = "inactive"

[[record]]
compound = "CCOC(=O)O[C@H](C)OC(=O)c1ccc2c(c1)cc(C(=O)NC1CCN(C(C)C)CC1)n2Cc1cc(-c2ccc(Cl)s2)on1"
qualitative_label = "active"

[[record]]
compound = "Cc1[nH]nc2c1N=C(c1ccccc1Cl)c1cc([N+](=O)[O-])ccc1N2"
qualitative_label = "inactive"

